# target-under-test: T1, human CXCR2 (human, UniProt P25025 1-360)
# T1 construct: also called CXC chemokine receptor 2; hCXCR2
# T1 sequence: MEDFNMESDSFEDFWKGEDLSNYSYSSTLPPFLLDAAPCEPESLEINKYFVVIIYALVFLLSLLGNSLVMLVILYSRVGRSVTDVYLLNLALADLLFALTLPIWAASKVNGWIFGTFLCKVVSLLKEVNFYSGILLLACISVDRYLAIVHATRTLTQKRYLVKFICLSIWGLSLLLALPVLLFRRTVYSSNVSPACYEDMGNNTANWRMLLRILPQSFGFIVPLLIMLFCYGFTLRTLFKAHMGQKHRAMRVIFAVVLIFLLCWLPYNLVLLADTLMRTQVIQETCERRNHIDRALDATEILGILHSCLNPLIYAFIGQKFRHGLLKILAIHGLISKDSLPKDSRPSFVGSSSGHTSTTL
# test-summary: flow cytometry, CXCR2-transfected Expi293F cells
Listed here: items and their measured EC50.
quantity-measured: EC50

binder="BKO-4A8 combinatorial variant 2c (antibody, human IgG4 S228P, lambda, V domains shown, IgG4 S228P, lambda) VH: EVQLLESGGGLVQPGGSLRLSCAASGFTFSSSTQSWVRQPPGKGLEWVSAISGRGRSTYYADSVKGRFTISRDNSRNTLYLQMNSLRAEDTAVYYCAIQMGYWGQGILVTVSS VL: QSALTQPPSASGSPGQSVTISCIGTSSDVGGYNYVSWYQQHPGKAPKLMIYEVSKRPSGVPDRFSGSKSGNTASLTVSGLQAEDEADYYCSSYAGSNNFGVFGGGTKLTVLG" reported_value="300 pM"
binder="BKO-4A8 combinatorial variant 2b (antibody, human IgG4 S228P, lambda, V domains shown, IgG4 S228P, lambda) VH: EVQLLESGGGLVQPGGSLRLSCAASGFTFSSSTQSWVRQPPGKGLEWVSAISGRGRSTYYADSVKGRFTISRDNSRNTLYLQMNSLRAEDTAVYYCAIQMGYWGQGILVTVSS VL: QSALTQPPSASGSPGQSVTISCIGTSSDVGGYNYVSWYQQHPDKAPKLMIYEVSKRPSGVPDRFSGSKSGNTASLTVSGLQAEDEADYYCSSYAGSNNFGVFGGGTKLTVLG" reported_value="400 pM"
binder="BKO-4A8 combinatorial variant 6b (antibody, human IgG4 S228P, lambda, V domains shown, IgG4 S228P, lambda) VH: EVQLLESGGGLVQPGGSLRLSCAASGFTFSSSTQSWVRQPPGKGLEWVSAISGRGRSTYYADSVKGRFTISRDNSKNTLYLQMNSLRAEDTAVYYCAKQKGYWGQGILVTVSS VL: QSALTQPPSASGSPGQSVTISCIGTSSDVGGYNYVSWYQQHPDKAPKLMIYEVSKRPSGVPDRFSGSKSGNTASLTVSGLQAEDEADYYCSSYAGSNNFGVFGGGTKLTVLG" reported_value="400 pM"
